Target or test system: Lysosomal alpha-glucosidase (Homo sapiens) (UniProt P10253)
Experiment description: Stabilization of recombinant human lysosomal alpha-glucosidase assessed as change in melting temperature at 1000 uM by thermal shift assay
Measurement label: ΔTm (°C)
Give your result in °C as a bare value.

OC[C@@H]1N[C@@H](CO)[C@H](O)[C@H]1O    13.9
OC[C@H]1NC[C@@H](O)[C@@H]1O    10.8
OC[C@@H]1NC[C@H](O)[C@H]1O    18.7
CN1C[C@H](O)[C@@H](O)[C@@H]1CO    4.6

Let us move to another entry and its ΔTm.
Request: Can you share its ΔTm? I mean this molecule: "OC[C@H]1N[C@H](CO)[C@@H](O)[C@@H]1O"
Response: 6.9

----------
Target or test system: Lysosomal alpha-glucosidase (Homo sapiens) (UniProt P10253)
Experiment description: Stabilization of recombinant human lysosomal alpha-glucosidase assessed as change in melting temperature at 100 uM by thermal shift assay
Measurement label: ΔTm (°C)
Give your result in °C as a bare value.

OC[C@@H]1NC[C@H](O)[C@H]1O    14.1
OC[C@@H]1N[C@@H](CO)[C@H](O)[C@H]1O    8.3
OC[C@H]1NC[C@@H](O)[C@@H]1O    4.1
OC[C@H]1N[C@H](CO)[C@@H](O)[C@@H]1O    0.9

Let us move to another entry and its ΔTm.
Request: Can you share its ΔTm? I mean this compound: "CN1C[C@H](O)[C@@H](O)[C@@H]1CO"
Response: 0

----------
Target or test system: Lysosomal alpha-glucosidase (Homo sapiens)
Experiment description: Stabilization of recombinant human lysosomal alpha-glucosidase assessed as change in melting temperature at 10 uM by thermal shift assay
Measurement label: ΔTm (°C)
Give your result in °C as a bare value.

Recorded ΔTm, per entry:
OC[C@H]1N[C@H](CO)[C@@H](O)[C@@H]1O    0
OC[C@H]1NC[C@@H](O)[C@@H]1O    0
OC[C@@H]1N[C@@H](CO)[C@H](O)[C@H]1O    0
OC[C@@H]1NC[C@H](O)[C@H]1O    6.2

Let us move to another entry and its ΔTm.
Request: Can you share its ΔTm? I mean this molecule: "CN1C[C@H](O)[C@@H](O)[C@@H]1CO"
Response: 0
